- Assay Info: Plasma pharmacokinetics of CR665 after single IV infusion in human subjects
- Condition Set: male, human, plasma, intravenous, Vss, geometric least squares mean, males, 5-minute infusion, Parts A & B
Structures can show the parent of a compound that is named as a salt. Non-standard residues stand in square brackets, D forms with d. Residues, ends and D or L forms follow the SMILES beside them. *: point of attachment. NH(4-picolyl) = c1cc(CN*)ccn1; dNle = CCCC[C@@H](N)C(=O)O
Parameter Measured: Vd (L)
API: value field is a number in L; no unit string.

Could you share which Vd value was measured for CCCC[C@@H](NC(=O)[C@@H](Cc1ccccc1)NC(=O)[C@H](N)Cc1ccccc1)C(=O)N[C@H](CCCNC(=N)N)C(=O)NCc1ccncc1 [CR665, acetate salt] (H-[dF][dF][dNle][dR]-{NH(4-picolyl)}) ? 18.1

----------
- Assay Info: Plasma pharmacokinetics of CR665 after single IV infusion in human subjects
- Condition Set: male, human, plasma, iv, 0.09 mg/kg, Vz, males, 5-minute IV infusion, geometric mean
Where a name gives a salt, the structure may show the parent alone. Non-standard residues stand in square brackets, D forms with d. Residues, ends and D or L forms follow the SMILES beside them. *: point of attachment. NH(4-picolyl) = c1cc(CN*)ccn1; dNle = CCCC[C@@H](N)C(=O)O
Parameter Measured: Vd (L)
Give the value in L but do not write L after it.

Record request: Vd value, item CCCC[C@@H](NC(=O)[C@@H](Cc1ccccc1)NC(=O)[C@H](N)Cc1ccccc1)C(=O)N[C@H](CCCNC(=N)N)C(=O)NCc1ccncc1 [CR665, acetate salt] (H-[dF][dF][dNle][dR]-{NH(4-picolyl)}) 56.7

----------
- Assay Info: Plasma pharmacokinetics of CR665 after single IV infusion in human subjects
- Condition Set: male, human, plasma, iv, 0.36 mg/kg, Vss, males, 0.36 mg/kg, 1 hour IV infusion, geometric mean
- Protocol: This clinical study was conducted as a double blind, placebo controlled, ascending single intravenous (IV) dose, sequential group study. […] Plasma and urine samples for the analysis of CR665 and N oxide metabolite were prepared by solid phase extraction. The centrifuged eluates were quantified by liquid chromatography with tandem mass spectrometric detection (LC MS/MS). The lower limit of quantification was 1 ng/mL. […]
Counter-ions that a name gives are not always drawn. Non-standard residues stand in square brackets, D forms with d. Residues, ends and D or L forms follow the SMILES beside them. *: point of attachment. NH(4-picolyl) = c1cc(CN*)ccn1; dNle = CCCC[C@@H](N)C(=O)O
Parameter Measured: Vd (L)
# unit: L | format: bare number

Data request, read-out Vd, for CCCC[C@@H](NC(=O)[C@@H](Cc1ccccc1)NC(=O)[C@H](N)Cc1ccccc1)C(=O)N[C@H](CCCNC(=N)N)C(=O)NCc1ccncc1 [CR665, acetate salt] (H-[dF][dF][dNle][dR]-{NH(4-picolyl)}) 21.2

----------
- Assay Info: Plasma pharmacokinetics of CR665 after single IV infusion in human subjects
- Condition Set: male, human, plasma, iv, 0.03 mg/kg, Cmax, males, 5-minute IV infusion, geometric mean
Structures can show the parent of a compound that is named as a salt. Non-standard residues stand in square brackets, D forms with d. Residues, ends and D or L forms follow the SMILES beside them. *: point of attachment. NH(4-picolyl) = c1cc(CN*)ccn1; dNle = CCCC[C@@H](N)C(=O)O
Parameter Measured: Cmax
State the value with its unit after it.

Entry CCCC[C@@H](NC(=O)[C@@H](Cc1ccccc1)NC(=O)[C@H](N)Cc1ccccc1)C(=O)N[C@H](CCCNC(=N)N)C(=O)NCc1ccncc1 [CR665, acetate salt] (H-[dF][dF][dNle][dR]-{NH(4-picolyl)}) has what Cmax? 233 ng/mL

Cited source for all entries: patent US8217000B2
